# Assay details: BSK_SAg_SRB: Viability Assessment in the BioMAP Diversity Plus: SAg Assay (AID 2283096);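 note: cells read one day after compound addition; hits may be either gain or loss of signal compared with DMSO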
# Condition info: primary human HUVEC with PBMC
# Method: BSK_SAg is a cell-based, multiplexed-readout assay that uses umbilical vein endothelium and peripheral blood mononuclear cells, a human vascular primary cell co-culture, with measurements taken at 24 hours after chemical dosing in a 96-well plate.BSK_SAg_SRB is an assay component measured in the BSK_SAg assay. […] This assay endpoint, BSK_SAg_SRB, was analyzed with bidirectional fitting relative to DMSO as the negative control and baseline of activity. […]
Active and inactive are the calls of the source. Rule for the calls: active = hit-call score of the fitted dose curve at least 0.9, where 1 is the maximum; inactive = score below 0.9.
Thanks in advance; please answer with one of these: active, inactive

Ask: Status in this test for CCNc1cccc(C)c1 ?
Result: inactive

Ask: Repeat for the following molecule: O=C(N[C@@H](Cc1ccccc1)[C@@H](O)C(=O)N1C[C@@H](O)[C@@H](O)C1)c1cc2cc(Cl)ccc2[nH]1
Result: inactive

Ask: And for Cc1ccc(C)c(O)c1C ?
Result: inactive

Ask: Quick one: NCC1(Cc2noc(=O)[nH]2)CCCCC1
Result: inactive

Ask: Another molecule to check: Cc1nc(C)nc(N2C[C@@H](C)N(c3ccnc([C@@H](C)O)n3)[C@@H](C)C2)n1
Result: inactive

Ask: Query CCOc1ccc2c(c1)C(C)=CC(C)(C)N2 next
Result: inactive

Ask: Now give it for COCCOCCOC too.
Result: inactive

Ask: // query: C=CCOC(=O)c1ccccc1C(=O)OCC=C
Result: inactive

Ask: Now give it for CC(=O)OC/C=C(\C)CCC=C(C)C too.
Result: inactive

Ask: Now give it for CCCCC(CC)COC(=O)CC(C(=O)OCC(CC)CCCC)S(=O)(=O)O (stereo not given) too.
Result: active

Ask: What would you report for FC(F)(F)C(F)(F)C(F)(F)C(F)(F)C(F)(F)C(F)(F)CCI ?
Result: inactive

Ask: How about CC1=C(/C=C/C(C)=C/C=C/C(C)=C/CO)C(C)(C)CCC1 ?
Result: inactive

Ask: Request: COc1cc(-c2nc(NC(=O)c3cc4cc(C)cc(C)c4n3CC(=O)O)sc2CCC2CCCCC2)c(OC)cc1Cl
Result: active

Ask: Same read-out for Cc1nc(-c2ccc3c(c2)CCN(CCC2CCC(NC(=O)/C=C/c4ccc(F)cc4)CC2)CC3)no1 (stereo not given) ?
Result: inactive

Ask: And for Nc1nc(N)c2nc(CNc3ccc(C(=O)N[C@@H](CCC(=O)O)C(=O)O)cc3)cnc2n1 ?
Result: inactive

Ask: Consider next the molecule CC(C)(C)c1cc(O)c(C(C)(C)C)cc1O in the same way.
Result: inactive

Ask: Okay, and CCCCCCOCCO ?
Result: inactive

Ask: Then this molecule: CCCCCCCC=O
Result: inactive

Ask: And what about the molecule COc1ccc2c(c1)c(CC(=O)O)c(C)n2C(=O)c1ccc(Cl)cc1 ?
Result: inactive

Ask: For O=c1[nH]cc(F)c(=O)[nH]1 then?
Result: inactive

Ask: Another molecule to check: CCCCCCCCCCCCCCCC
Result: inactive

Ask: Lookup CCCCCC(=O)O
Result: inactive

Ask: Try this molecule next: O=[N+]([O-])C(CO)(CO)CO
Result: inactive

Ask: Likewise for CN1CCCC1=O ?
Result: inactive

Ask: Another molecule to look at: CCCc1cc(=O)[nH]c(=S)[nH]1
Result: inactive

====

# Assay details: ATG_Ets_CIS: Attagene CIS-FACTORIAL HepG2 Assay for human Erythroblast Transformation Specific (ETS) (AID 2282941)
# Condition info: HepG2 ETS cis-reporter transcription, actives raise or lower the signal
The source made the active and inactive calls. How the source made its calls: active means hit-call score of the fitted dose curve at least 0.9, where 1 is the maximum; inactive means score below 0.9.
Lab note: assign the record to one of label 1 for active, label 0 for inactive

Ask: Tell me the recorded outcome of this test for COCCOC[C@H](CC1(C(=O)NC2CCC(C(=O)O)CC2)CCCC1)C(=O)Oc1ccc2c(c1)CCC2 (some centres not stated) .
Result: label 0

Ask: Now consider COc1ccc(S(=O)(=O)N2C(=O)[C@@](c3ccccc3OC)(N3C[C@H](O)C[C@H]3C(=O)N(C)C)c3cc(Cl)ccc32)c(OC)c1 and answer again.
Result: label 1

Ask: Follow-up item: C=CCOC(=O)c1ccccc1C(=O)OCC=C
Result: label 0

Ask: Also CCOC(=O)C(C)(C)Oc1ccc(Cl)cc1 , if possible.
Result: label 0

Ask: And then CCCCCCCCCCCCCCCCCC(=O)O , what is it?
Result: label 0

Ask: Please give the result for CCCCCCCCCCCCCO too.
Result: label 0

Ask: # repeat for CC1=C(/C=C/C(C)=C/C=C/C(C)=C/CO)C(C)(C)CCC1
Result: label 0

Ask: # iterate: O=C(N[C@@H](Cc1ccccc1)[C@@H](O)C(=O)N1C[C@@H](O)[C@@H](O)C1)c1cc2cc(Cl)ccc2[nH]1
Result: label 0

Ask: Okay, and CCOC(=O)CCC(=O)OCC ?
Result: label 0

Ask: // next record Clc1cc(Cl)c(Cl)cc1Cl
Result: label 0

Ask: How about CCCCCCCC=O ?
Result: label 0

Ask: Consider next the compound CN1CCCC1=O in the same way.
Result: label 0

====

# Read-out: Monokine induced gamma interferon (MIG), CXCL9 (gene 4283)
# Assay details: BSK_BE3C_MIG: BioMAP Diversity Plus: BE3C Assay for Monokine induced gamma interferon (MIG) Biomarker Activity (AID 2283035);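 for outcome: MIG protein measured by ELISA in BE3C cultures after 24 h of dosing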
# Condition info: primary human bronchial epithelial cells; actives raise or lower the signal
Calls of active or inactive are those of the source. How the source made its calls: active means hit-call score of the fitted dose curve at least 0.9, where 1 is the maximum; inactive means score below 0.9.
Your answer must be one of the following: active, inactive

Ask: Name the outcome recorded for Cc1nc(C)nc(N2C[C@@H](C)N(c3ccnc([C@@H](C)O)n3)[C@@H](C)C2)n1 in the assay.
Result: inactive

Ask: Now the compound CC1(C)NC(=O)NC1=O
Result: inactive

Ask: Now the compound CN1CCN(Cc2cc(-c3ccc4[nH]c(=O)oc4c3)co2)[C@@H](c2ccc(F)cc2)C1
Result: inactive

Ask: And c1cc(-c2ccncc2)ccn1 ?
Result: inactive

Ask: And what about the compound CCCCCCCCCCCCCCCCCC(=O)O ?
Result: inactive

Ask: Now the same for CCCCCC(=O)O
Result: inactive

Ask: Quick one: CCCCCCCCCCC
Result: inactive

Ask: And what about the compound NC(=O)Cn1c(=O)cc(CCN2CCN(c3nccc4sccc34)CC2)c2ccc(F)cc21 ?
Result: inactive

Ask: # iterate: COCCOCCOC
Result: inactive

Ask: Again, but for CN1CCCC1=O
Result: inactive

Ask: Input OC[C@@H](O)[C@@H](O)[C@H](O)[C@H](O)CO
Result: inactive

Ask: For CC(=O)Oc1ccccc1C(=O)O then?
Result: inactive

Ask: Then what about the compound COc1ccc(S(=O)(=O)N2C(=O)[C@@](c3ccccc3OC)(N3C[C@H](O)C[C@H]3C(=O)N(C)C)c3cc(Cl)ccc32)c(OC)c1 ?
Result: inactive

Ask: What about Cc1cccc(Nc2cc(Cl)nc(SCC(=O)O)n2)c1C ?
Result: inactive

Ask: Next compound up: CCCCCCCCCCCC(=O)OC
Result: inactive

Ask: Next compound: CN[C@H]1CC[C@@H](c2ccc(Cl)c(Cl)c2)c2ccc(S(N)(=O)=O)cc21
Result: active

Ask: Next entry: Cc1ccc(N(C)C)cc1
Result: inactive

Ask: Likewise for FC(F)(F)C(F)(F)C(F)(F)C(F)(F)C(F)(F)C(F)(F)CCI ?
Result: inactive

Ask: Same again, this time with Cc1ccc2ncccc2c1
Result: inactive

Ask: Also CCCCN(CCCC)CCCC ?
Result: inactive

Ask: Then what about the compound Cc1ccc(C)c(C)c1 ?
Result: inactive

Ask: And then CCOC(=O)CCC(=O)OCC , what is it?
Result: inactive

Ask: Likewise for Cc1ccccc1Cl ?
Result: inactive

Ask: Repeat for the following compound: NCC1(Cc2noc(=O)[nH]2)CCCCC1
Result: inactive

Ask: Ok, now Nc1nc(N)c2nc(CNc3ccc(C(=O)N[C@@H](CCC(=O)O)C(=O)O)cc3)cnc2n1
Result: inactive

Ask: Queued: Clc1cc(Cl)c(Cl)cc1Cl
Result: inactive

Ask: Subsequent entry: CCc1c(C(=O)NN2CCCCC2)nn(-c2ccc(Cl)cc2Cl)c1-c1ccc(Br)cc1
Result: inactive

====

# Read-out: matrix metalloproteinase-3 (MMP3), MMP3 (gene 4314)
# Assay details: LTEA_HepaRG_MMP3: Life Technologies and Expression Analysis (LTEA) Assay for matrix metalloproteinase-3 (MMP3) using HepaRG (AID 2283519)
# Condition info: mRNA level, 48 h; actives raise or lower the signal
# Experimental: LTEA_HepaRG is a cell based, multiplexed-readout assay that uses HepaRG, a human liver cell line, with measurements taken at 48 hours after chemical dosing on a 96-well plate.LTEA_HepaRG_MMP3 is one of 102 assay component(s) measured in the LTEA HepaRG cell culture assay. It is a marker of Fibrosis.Data from the assay component LTEA_HepaRG_MMP3 was analyzed into 1 endpoint. […]
Active and inactive are the calls of the source. How the source made its calls: active means hit-call score of the fitted dose curve at least 0.9, where 1 is the maximum; inactive means score below 0.9.
Could you please pick one outcome from this set? class 1 (active), class 0 (inactive)

Ask: Outcome? Nc1nc(N)c2nc(CNc3ccc(C(=O)N[C@@H](CCC(=O)O)C(=O)O)cc3)cnc2n1
Result: class 0

Ask: Here is the next molecule: Nc1ccccc1N
Result: class 1

Ask: Then what about the molecule O=c1[nH]cc(F)c(=O)[nH]1 ?
Result: class 0

Ask: Can you handle NC(=O)Cn1c(=O)cc(CCN2CCN(c3nccc4sccc34)CC2)c2ccc(F)cc21 next?
Result: class 0

Ask: And what about the molecule Cc1cccc(C)c1O ?
Result: class 0

Ask: Same again, this time with Cc1ccc2ncccc2c1
Result: class 0

Ask: Further, for CCCc1cc(=O)[nH]c(=S)[nH]1 ?
Result: class 0

Ask: # iterate: Cc1oc(-c2ccccc2)nc1CCOc1cccc2c1ccn2CCC(=O)O
Result: class 0

Ask: Also, CNC(=O)[C@H]1O[C@@H](n2cnc3c(NCc4cc(Cl)ccc4OCc4cc(C)no4)ncnc32)[C@H](O)[C@@H]1N please.
Result: class 0

Ask: Entry COc1cc(C=O)ccc1O please
Result: class 0

Ask: For Cc1ccccc1Cl then?
Result: class 0

Ask: Next up: CCCCCCCCCCCC(=O)OC
Result: class 0

Ask: Thanks! And CCNc1cccc(C)c1 ?
Result: class 0

Ask: Ok, now COc1cc(-c2nc(NC(=O)c3cc4cc(C)cc(C)c4n3CC(=O)O)sc2CCC2CCCCC2)c(OC)cc1Cl
Result: class 0

Ask: Also, COc1cc(S(=O)(=O)O)c(C)cc1N=Nc1c(O)ccc2cc(S(=O)(=O)O)ccc12 please.
Result: class 0

Ask: Another molecule to check: CNCc1cc(F)ccc1Oc1ccc(Cl)c(Cl)c1
Result: class 1

Ask: What about COc1ccc(C)cc1N ?
Result: class 0

Ask: // query: Cc1cccc(Nc2cc(Cl)nc(SCC(=O)O)n2)c1C
Result: class 0

Ask: Next up: CC(=O)Oc1ccccc1C(=O)O
Result: class 0

Ask: Further, for Nc1ccc2c(c1)C(=O)c1ccccc1C2=O ?
Result: class 0

Ask: Param item: CCCCC(CC)COC(=O)CC(C(=O)OCC(CC)CCCC)S(=O)(=O)O (stereo unspecified)
Result: class 0

Ask: Quick one: CN1CCCC1=O
Result: class 0

Ask: Lookup NCC1(Cc2noc(=O)[nH]2)CCCCC1
Result: class 0

Ask: // next record COCCOCCOC
Result: class 0

Ask: Similarly, Cc1nc(-c2ccc3c(c2)CCN(CCC2CCC(NC(=O)/C=C/c4ccc(F)cc4)CC2)CC3)no1 (stereo unspecified) ?
Result: class 0

Ask: Another molecule: CN1CCN(Cc2cc(-c3ccc4[nH]c(=O)oc4c3)co2)[C@@H](c2ccc(F)cc2)C1
Result: class 0
